Test: in vivo
Details: Kbl:JW, rabbit, aqueous humor, topical or ocular, 30 µL of 0.1% eye drops
readout type: Tmax

Data request: Report measured Tmax; entry is NC(=O)Cc1cccc(C(=O)c2ccccc2)c1N [Nepafenac, nepafenac]
Data returned: 30 min

----------
Assay: in vivo
Conditions: Kbl:JW, rabbit, topical or ocular
readout type: k el (s⁻¹)
Quick note: give the figure in s⁻¹, leave out the unit.

Data request: Report measured k el; entry is O=C(O)Cc1ccccc1Nc1c(Cl)cccc1Cl
Data returned: 0.000102

----------
Assay: in vivo
Conditions: Kbl:JW, rabbit, in vivo, topical or ocular
readout type: k el (s⁻¹)
Quick note: give the figure in s⁻¹, leave out the unit.

Data request: Report measured k el; entry is O=C(O)Cc1ccccc1Nc1c(Cl)cccc1Cl
Data returned: 9.94e-05

----------
Assay: in vivo
Conditions: Kbl:JW, rabbit, topical or ocular
readout type: Cmax (ng/g)
Quick note: give the figure in ng/g, leave out the unit.

Recorded results for 2 molecules are shown here.
>>> df
                  smiles_structure  reported_value
0  Nc1c(CC(=O)O)cccc1C(=O)c1ccccc1            12.5
1   O=C(O)Cc1ccccc1Nc1c(Cl)cccc1Cl            38.2

Data request: Report measured Cmax; entry is Nc1c(CC(=O)O)cccc1C(=O)c1ccc(Br)cc1
Data returned: 15.8

----------
Test: in vivo
Settings: Kbl:JW, rabbit, topical or ocular
readout type: half-life (h)
Quick note: give the figure in h, leave out the unit.

Data request: Report measured half-life; entry is O=C(O)Cc1ccccc1Nc1c(Cl)cccc1Cl [Diclofenac, diclofenac]
Data returned: 1.89

These data points were gathered from paper PMC4010472.
